# Target under test: T1, Human Id2: Histidine (human, UniProt Q02363 1-134, limits assumed)
# T1 construct: Fusion protein made in E. coli from vector pGW07; also called h-Id2: His; not shown: His tag
# T1 sequence (looked up): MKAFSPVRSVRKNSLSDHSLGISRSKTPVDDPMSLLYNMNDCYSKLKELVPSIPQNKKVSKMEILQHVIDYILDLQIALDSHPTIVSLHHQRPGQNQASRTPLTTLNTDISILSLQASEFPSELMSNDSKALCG
# Experiment summary: ELISA, Ab 0.010 µg/ml
Property measured: A450 (A450)
Answers are plain numbers, in A450.

Data request, read-out A450, for rabbit monoclonal anti-mouse/human Id3, clone #BCH-4/#16-1 (antibody, V domains shown, Rabbit IgG from a rabbit hybridoma; also called m/h Id3 MoAb 16-1) VH: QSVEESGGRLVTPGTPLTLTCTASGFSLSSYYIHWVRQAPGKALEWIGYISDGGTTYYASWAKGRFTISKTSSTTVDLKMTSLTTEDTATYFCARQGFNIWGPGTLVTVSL VL: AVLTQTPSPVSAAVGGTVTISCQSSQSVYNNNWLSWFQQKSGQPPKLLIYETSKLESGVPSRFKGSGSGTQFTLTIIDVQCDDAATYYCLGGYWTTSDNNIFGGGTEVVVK
0.044
